ASSAY TARGET: T1, hErbB3.mFc (soluble dimeric human ErbB3 extracellular domain fused to mouse Fc) (human)
T1 construct: called dimeric
T1 chain: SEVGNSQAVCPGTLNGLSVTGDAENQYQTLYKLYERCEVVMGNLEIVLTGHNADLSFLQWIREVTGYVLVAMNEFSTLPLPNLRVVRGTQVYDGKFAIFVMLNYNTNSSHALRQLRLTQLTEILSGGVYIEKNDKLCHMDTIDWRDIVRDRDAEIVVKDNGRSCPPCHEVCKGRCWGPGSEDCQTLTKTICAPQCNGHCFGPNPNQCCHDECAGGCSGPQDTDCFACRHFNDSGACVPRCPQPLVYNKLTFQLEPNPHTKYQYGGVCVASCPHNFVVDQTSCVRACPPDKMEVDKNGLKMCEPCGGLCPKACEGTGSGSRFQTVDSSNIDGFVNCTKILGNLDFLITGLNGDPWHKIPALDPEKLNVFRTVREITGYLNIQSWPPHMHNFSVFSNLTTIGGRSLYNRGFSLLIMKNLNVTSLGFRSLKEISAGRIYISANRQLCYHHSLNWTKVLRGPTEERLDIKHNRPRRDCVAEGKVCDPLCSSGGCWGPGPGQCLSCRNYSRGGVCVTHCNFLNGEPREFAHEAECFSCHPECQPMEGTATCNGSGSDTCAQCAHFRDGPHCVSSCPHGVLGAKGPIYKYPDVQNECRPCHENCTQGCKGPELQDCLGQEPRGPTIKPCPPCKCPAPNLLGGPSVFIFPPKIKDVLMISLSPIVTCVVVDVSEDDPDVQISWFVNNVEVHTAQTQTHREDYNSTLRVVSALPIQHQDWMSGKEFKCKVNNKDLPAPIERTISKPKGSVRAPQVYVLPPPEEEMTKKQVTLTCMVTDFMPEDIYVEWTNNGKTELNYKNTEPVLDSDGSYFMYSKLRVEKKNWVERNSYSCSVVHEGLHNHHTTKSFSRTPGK
MEASUREMENT DESCRIPTION: SPR (Biacore), 25 C, mAb capture format
Description: (Tables 2-4). Measurements were conducted on a Biacore 2000 or T100 instrument. […] Kinetic association (kₐ) and dissociation (kd) rate constants were determined by processing and fitting the data to a 1:1 binding model using Scrubber 2.0 curve fitting software.
Below: a set of entries, each annotated with reported koff.
Answer with a number only, understood to be in s⁻¹.

## Input Quick one: koff of H4H2154P (antibody, V domains shown, Fully human, human IgG4 Fc (H4H prefix)) VH: QVQLQESGPGLINPSQTLSVTCTVSGGSISSGGYYWTWIRQHPGKGLEWIGYISYSGNTNYNPSLKSRVTISVDTAKNQFSLKLSSVTAADTAVYFCARDSDVDTAMVDGIDIWGQGTMVTVSS VL: DIQMTQSPSSVSASVGDRVTITCRASQDISSWLAWYQQKPGRAPKLLIYTASSLQSGVPSRFSGSGSGTDFTLTISSLQPEDFATYFCQQANSFPFTFGPGTKVDIKR ?
## Output 9.77e-07

## Input Entry H4H2143P (antibody, V domains shown, Fully human, human IgG4 Fc (H4H prefix)) VH: EVQLVESGGGLVQPGRSLRLSCAASGFTFGDYAMHWVRQAPGKGLEWVSGINLNSGTIGYADSVKGRFTISRDNAKNSLYLQMNSLRAEDTAFYYCAKDIDGYYHYAMDVWGQGTTVTVSS VL: DVVMTQSPSFLSASVGDRVTITCWASQGISSYLAWYQQKPGKAPKLLIYDASTLESGVPSRFSGSGSGTEFTLTISNLQPEDFATYYCQQVNSYPLTFGGGTKVEIKR has what koff?
## Output 4.63e-06

## Input # koff lookup, item H4H2108P (antibody, V domains shown, Fully human, human IgG4 Fc (H4H prefix)) VH: EVQLLESGGDLVQPGGSLRLSCATSGFSFSSDAMNWVRQAPGKGLEWVSGISGSGGNTYYADSVKGRFTISRDISKSTLSLQMNSLRAEDTAVYYCAKEGTNMVRGVVMEDNGMDVWGQGTTVTVSA VL: DIQMTQSPSSVSASVGDRVTITCRASQGISDYLAWYQQKPGKAPKLLIYAASSLQSGVPSRFSGRGSGTDFTLTISTLQPEDFATYYCQQANSFPLTFGGGTKVDIKR
## Output 4.33e-06
